- PROTOCOL_DETAILS: Pharmacokinetics of Nab-2 in monkeys
- Format: in vivo
- EXPERIMENTAL_PARAMETERS: male, blood; Nab-2 IV 20 mg/kg, cynomolgus monkey

[
  {
    "COMPOUND": "CCCCCC(=O)O[C@@H](C(=O)O[C@H]1C[C@@]2(O)[C@@H](OC(=O)c3ccccc3)C3[C@](C)(C(=O)[C@H](O)C(=C1C)C2(C)C)[C@@H](O)C[C@H]1OC[C@@]31OC(C)=O)[C@@H](NC(=O)OC(C)(C)C)c1ccccc1 (stereo partly shown)",
    "clearance, mL/min/kg": 42.4
  }
]

###

- PROTOCOL_DETAILS: Pharmacokinetics of Nab-2 in monkeys
- Format: in vivo
- EXPERIMENTAL_PARAMETERS: male, blood; Nab-2 IV 10 mg/kg, cynomolgus monkey
REPORTED_PROPERTY: clearance (mL/min/kg)

[
  {
    "COMPOUND": "CCCCCC(=O)O[C@@H](C(=O)O[C@H]1C[C@@]2(O)[C@@H](OC(=O)c3ccccc3)C3[C@](C)(C(=O)[C@H](O)C(=C1C)C2(C)C)[C@@H](O)C[C@H]1OC[C@@]31OC(C)=O)[C@@H](NC(=O)OC(C)(C)C)c1ccccc1 (stereo partly shown) [Compound 2, 2′-Hexanoyl Docetaxel]",
    "REPORTED_PROPERTY": "clearance",
    "REPORTED_MEASUREMENT": 31.2
  }
]
